- System: anti collagen antibodies induced arthritis (ACAIA)
- assayMethodText: Anti collagen antibodies induced arthritis (ACAIA) in mice, intra-articular treatment: paw thickness, arthritis clinical score, body weight;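 further: mouse arthritis induced by IV anti-collagen mAb on day 0 plus IP LPS on day 4, with body weight, caliper paw thickness and 0-4 paw score tracked against a day 0 baseline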
- conditionInfo: BETi1 10 mg/kg IA (Group 2); Av

smilesData	systemName	Weight per day, Day 6
Cn1cc(-c2cccc(O)c2Oc2ccccc2)c2cc[nH]c2c1=O	anti collagen antibodies induced arthritis (ACAIA)	19.6 g

====

- assayMethodText: Toxicokinetics in dogs after intra-articular injection: plasma concentrations
- Assay type: in vivo, Beagle dogs
- conditionInfo: both sexes, Beagle, dog, plasma, other: intra-articular injection, 150 mg/animal; 150 mg intra-articular; 504 h; read-out: Plasma concentration of BETi1

compound	concentration at 504 h / ng/mL
Cn1cc(-c2cccc(O)c2Oc2ccccc2)c2cc[nH]c2c1=O [BETi1]	2.19

Data provenance: patent US20250339409A1
